// values below are reported GI50
# System: SK-MEL-5
# Assay Name: NCI tumour cell line growth inhibition, 48 h
The source made the active and inactive calls. Cut-off read from the data, not from the text of the source: active = GI50 up to about 1.1 µM and inactive = higher.

Guide cases for GI50, answers given:
{"Molecule": "Cc1nc2ccc(Br)cc2c(=O)n1-c1ccc(N)cc1", "Test Result": "> 100 µM (inactive)"}
{"Molecule": "COc1cccc(C23CCCC(C2)NCC3Br)c1OC (centres undefined)", "Test Result": "2.55 µM (inactive)"}
{"Molecule": "C/C(=C1/N=C(c2cc([N+](=O)[O-])ccc2Cl)N(c2ccc(Br)cc2)C1=O)c1ccc(N(CCC#N)CCC#N)cc1C", "Test Result": "13.7 µM (inactive)"}

Shift focus to the following entry.
Identify measured GI50 associated with `Cc1ccc(NC(=O)c2cc(S(=O)(=O)Nc3nc4cccnc4[nH]3)c(SSc3cc(Cl)c(C(=O)Nc4ccc(C)cc4)cc3S(=O)(=O)Nc3nc4cccnc4[nH]3)cc2Cl)cc1` > 100 µM (inactive)

* * *

# Test system: NCI-H522
# Assay Name: NCI tumour cell line growth inhibition, 48 h
Calls of active or inactive are those of the source. No stated cut-off is given here; in the data, active = GI50 up to about 1.1 µM and inactive = higher.
Recorded GI50 by entry

See these solved cases before continuing.
{"Compound": "CN(C)c1ccc(/C=N/Nc2nc3ccccc3c(=O)n2-c2ccccc2)cc1", "GI50": "44.5 µM (inactive)"}
{"Compound": "O=c1cccc2n1CC1CNC[C@H]2C1", "GI50": "> 100 µM (inactive)"}
{"Compound": "CCOC(=O)/C(=C\\NC(C)(C)CO)c1nc2ccccc2[nH]1", "GI50": "61.7 µM (inactive)"}
{"Compound": "NC(=O)C(=CNC(=S)c1ccncc1)C(N)=O", "GI50": "> 100 µM (inactive)"}
{"Compound": "CC1CCc2sc3nc4n(c(=O)c3c2C1)CC(C)S4 (stereo not drawn)", "GI50": "30.9 µM (inactive)"}
{"Compound": "O=CN1CCN(C(=O)c2ccc(Cl)c(Cl)c2)C1=S", "GI50": "4.93 µM (inactive)"}

Supply measured GI50 of `O=P(NC12CC3CC(CC(C3)C1)C2)(N1CC1)N1CC1` in your reply. 25.7 µM (inactive)

# return recorded GI50 for entry NC(=O)CCC(Nc1c2ccccc2[n+]([O-])c2ccccc12)C(=O)O (stereo not drawn) 29.9 µM (inactive)

Provide GI50 value for the following compound: `C=C(C)[C@@H]1CCC2=C(CC[C@]3(C)[C@@H]([C@@H](CCC=C(C)C)C(=O)O)[C@H](O)C[C@@]23C)[C@@]1(C)CCC(=O)O` 44.2 µM (inactive)

* * *

Below, each entry is listed alongside its reported GI50.
# Test system: SK-MEL-28
# Assay Name: NCI tumour cell line growth inhibition, 48 h
Calls of active or inactive are those of the source. No stated cut-off is given here; in the data, active = GI50 up to about 1.1 µM and inactive = higher.

Consider the worked cases shown below.
{"Molecule": "SC1=NC2=C(CSC/C2=C\\c2ccc(Cl)cc2)C(c2ccc(Cl)cc2)N1 (stereo not drawn)", "Test Result": "> 100 µM (inactive)"}
{"Molecule": "CN(C)c1ccc(/C=N/Nc2nc3ccccc3c(=O)n2-c2ccccc2)cc1", "Test Result": "> 100 µM (inactive)"}
{"Molecule": "COc1ccc(C2=C(N)c3ccccc3C2=O)cc1", "Test Result": "> 100 µM (inactive)"}
{"Molecule": "Cn1ccnc1CCc1c(Cl)cccc1Cl", "Test Result": "> 100 µM (inactive)"}
{"Molecule": "Cc1cccc(NC(=S)NNC(=O)c2cc(-c3ccccc3)nc3ccccc23)c1", "Test Result": "38.4 µM (inactive)"}
{"Molecule": "CC12CCC3(OCCO3)C(OC(=O)c3ccccc3)=C1CCC21OCCO1 (stereo not drawn)", "Test Result": "> 100 µM (inactive)"}
{"Molecule": "Cc1ccnc(NS(=O)(=O)c2ccc(NC(=O)c3ccc4nc5ccccc5c(Nc5ccc(S(=O)(=O)Nc6nccc(C)n6)cc5)c4c3)cc2)n1", "Test Result": "> 100 µM (inactive)"}
{"Molecule": "CCOP(=O)(OCC)C(C#N)Cc1ccco1 (stereo not drawn)", "Test Result": "> 10 µM (inactive)"}
{"Molecule": "CCCCCCCCCCCCCC[C@@H](O)[C@H]1CC[C@H]([C@H]2CC[C@H]([C@H](O)CCCCCC[C@@H](O)CC3=C[C@H](C)OC3=O)O2)O1", "Test Result": "> 25 µM (inactive)"}
{"Molecule": "Cc1c(-c2ccccc2)c(C#N)c2nnn(-c3ccc([N+](=O)[O-])cc3)c(=O)n12", "Test Result": "32.6 µM (inactive)"}

Determine reported GI50 for COc1cccc(C23CCCC(C2)NCC3Br)c1OC (stereo not drawn) ; test system: SK-MEL-28. 48 µM (inactive)

Enter measured GI50, system SK-MEL-28, for the molecule shown: `C/C(=N\NS(=O)(=O)c1c(C)cc(C)cc1C)c1ccc[n+]([O-])n1` 13.3 µM (inactive)

* * *

# System: SN12C
# Assay Name: NCI tumour cell line growth inhibition, 48 h
The source made the active and inactive calls. No stated cut-off is given here; in the data, active = GI50 up to about 1.1 µM and inactive = higher.
Just give me one of these, please: active, inactive

Worked cases, answers included:
{"Compound": "CC1CCC2(OC1)OC1CC3C4CC=C5CC(OC6OC(CO)C(OC7OC(C)C(OC8OC(C)C(O)C(O)C8O)C(O)C7O)C(O)C6OC6OC(C)C(O)C(O)C6O)CCC5(C)C4CCC3(C)C1C2C (stereo not drawn)", "Label Class": "active"}
{"Compound": "Cc1ccc(S(=O)(=O)N(CC(O)COc2ccccc2)c2ccc(F)cc2F)cc1 (stereo not drawn)", "Label Class": "inactive"}
{"Compound": "CCOP(=O)(/C=C/n1cc(C)c(=O)[nH]c1=O)OCC", "Label Class": "inactive"}
{"Compound": "COc1cc(C2S/C(=C/c3ccccc3)C(=O)N2c2ccc(NC(C)=O)cc2)cc(OC)c1OC (stereo not drawn)", "Label Class": "inactive"}

Lab log entry: NC(Cc1ccccc1)c1nn[nH]n1 (stereo not drawn) — outcome as called in the assay? inactive

Name the outcome recorded for C/C(=N\N)C(CN1CCOCC1)C(c1ccccc1)c1c(O)c2ccccc2oc1=O (stereo not drawn) in the assay. inactive

I would be grateful if you could indicate the recorded call for `CCOC(=O)C(c1c[nH]c2ccccc12)(c1c[nH]c2ccccc12)c1c[nH]c2ccccc12` . inactive

Please state the recorded outcome for this compound: CN(C)/C=[N+]1/[C@@H](Cc2ccccc2)C(=O)O[B-]1(F)c1ccccc1 (stereo partly drawn) inactive

Please share the test call associated with `c1ccc(CN2CCC(Nc3ccccc3)(c3nnnn3Cc3ccccc3)CC2)cc1` . inactive

Assay result, entry COc1ccc(C(CC2(c3ccc(OC)cc3)SCCCS2)NC(C)=O)cc1 (stereo not drawn) — outcome? inactive

Fill in: this test's call for `C[C@H]1CC(=O)[C@@]2(O)C#C/C=C\C#C[C@@H]3Nc4c(cc(O)c5c4C(=O)c4ccccc4C5=O)[C@]24O[C@]314` is ___ active

* * *

# Tested on: OVCAR-3
# Assay Name: NCI tumour cell line growth inhibition, 48 h
Activity calls are given as the source filed them. Cut-off read from the data, not from the text of the source: active = GI50 up to about 1.1 µM and inactive = higher.
Answer with one of the outcomes active, inactive

{"Compound": "O=[N+]([O-])C1=Cc2cc(Cl)ccc2OC1c1cccc2ccccc12 (stereo not drawn)", "Label Class": "active"}

Recorded test outcome, item `Cn1c(=O)c2nc(CCCc3ccc([N+](=O)[O-])cc3)[nH]c2n(C)c1=O` inactive

Just curious, what result did `COC(C/C(=C/CO[Si](C(C)C)(C(C)C)C(C)C)C(=O)Nc1ccccc1I)OC` get here? inactive

Test call, this compound: `O=C/C(=C(/Br)I)c1ccccc1` inactive

Given SC1=NC2=C(CSC/C2=C\c2ccc(Cl)cc2)C(c2ccc(Cl)cc2)N1 (stereo not drawn) , state the outcome it received in this test. inactive

For this compound, state the assay outcome: `COc1ccc(Nc2n[nH]c(NS(=O)(=O)c3cc(C)c(Cl)cc3S)n2)cc1` inactive

Which result was noted for this compound in the test: `Cc1c(-c2c(C)c3ccccc3n2S(=O)(=O)c2ccccc2)n(S(=O)(=O)c2ccccc2)c2ccccc12` inactive

Please let me know the test result on file for `O=S(=O)(O)c1cc(S(=O)(=O)O)c2cc(/N=N/c3ccc(/N=N/c4ccc(/C=C/c5ccc(/N=[N+](/[O-])c6ccc(/C=C/c7ccc(/N=N/c8ccc(/N=N/c9ccc%10cc(S(=O)(=O)O)cc(S(=O)(=O)O)c%10c9)cc8)cc7S(=O)(=O)O)c(S(=O)(=O)O)c6)cc5S(=O)(=O)O)c(S(=O)(=O)O)c4)cc3)ccc2c1` . inactive

* * *

# Test system: RPMI-8226
# Assay Name: NCI tumour cell line growth inhibition, 48 h
Activity calls are given as the source filed them. Rule as the data show it: active = GI50 up to about 1.1 µM and inactive = higher.
Thanks in advance; please answer with one of these: active, inactive

Worked cases, answers included:
{"Compound": "C=C1C(O)C2(O)OCC34C(CC5C(C)=CC(=O)C(O)C5(C)C23)OC(=O)C(OC(=O)C/C=C(\\C)CCCCC)C14 (stereo not drawn)", "Label Class": "active"}
{"Compound": "COc1cc2c3c(cc(Cl)nc3c1OC)C(O)(CC(=O)c1ccccc1)C(=O)N2 (stereo not drawn)", "Label Class": "inactive"}
{"Compound": "O=C1OC(=O)C([Se]c2ccccc2)=C1[Se]c1ccccc1", "Label Class": "inactive"}
{"Compound": "CCOC(=O)c1cnc2cc3cccccc3n2c1=O", "Label Class": "inactive"}
{"Compound": "Cc1nn(-c2ccccc2)c(C)c1/C=N/NC(=O)c1sc(=S)n(-c2ccc(Cl)cc2)c1N", "Label Class": "inactive"}
{"Compound": "O=P1(N(CCCl)CCCl)Oc2ccc(Cl)cc2Sc2c(ccc(Cl)c2Cl)O1 (stereo not drawn)", "Label Class": "inactive"}

Record lookup: outcome of this test for COC(=O)C1=COC(OC2OC(CO)C(O)C(O)C2O)C2C3CN4CCc5c([nH]c6ccccc56)C4(CC12)O3 (stereo not drawn) ? inactive

Check the results log: what was the call for `O=C(O)CCSC(=O)Nc1ccccc1F` ? inactive

Which result was noted for this compound in the test: `COc1ccc(/N=N/C(=N\c2ccc(F)cc2)c2ccc(N(CCC#N)CCC#N)cc2)cc1` inactive

Look up the recorded call for `O=C(c1c2c(cc3c1CC1(Cc4cc5c(cc4C1)CCCC5)C3)CCCC2)C(Br)Br` in this test. inactive

Outcome logged for `C=C(C)[C@@H]1CCC2=C(CC[C@]3(C)[C@@H]([C@@H](CCC=C(C)C)C(=O)O)[C@H](O)C[C@@]23C)[C@@]1(C)CCC(=O)O` in this assay: inactive

Hi, sorry to bother you, what did the test record for `Cn1c(=O)c2nc(CCCc3ccc([N+](=O)[O-])cc3)[nH]c2n(C)c1=O` ? inactive

Per the assay record, what outcome was assigned to `COc1cc(NS(C)(=O)=O)ccc1Nc1cc(C)nc2ccc3[nH]ccc3c12` ? inactive

// return assay outcome for `NC(=O)C(=CNC(=S)c1ccncc1)C(N)=O` inactive
